- method: APR_HepG2_StressKinase_1hr: Apredica 1-hour HepG2 Assay for Stress Kinase (AID 2282906)
- assay_setup: HepG2 stress kinase (phospho-c-Jun) imaging, actives raise or lower the signal
Activity calls are given as the source filed them. The calls were made as follows: active = hit-call score of the fitted dose curve at least 0.9, where 1 is the maximum; inactive = score below 0.9.
Outcome (select one): YES for active, NO for inactive

Example entries begin here.
CCCCOC(=O)C(C)Oc1ccc(Oc2ccc(C(F)(F)F)cn2)cc1 (centres undefined)	NO
CCOC(=O)C(C)Oc1ccc(Oc2nc3ccc(Cl)cc3o2)cc1 (centres undefined)	NO
CCCCC(CC)CN1C(=O)C2C3C=CC(C3)C2C1=O (centres undefined)	NO

Enquiry: Could you please tell me the result logged for `S=C([S-])NCCNC(=S)[S-].[Mn+2]` in this assay?
Return: NO

Enquiry: Test call, this compound: `COc1c(Cl)ccc(Cl)c1C(=O)O`
Return: NO

###

- subject_of_test: human Dopamine Transporter (DAT), SLC6A3 (gene 6531)
- method: NVS_TR_hDAT: NovaScreen (NVS) Transporter Assay for human Dopamine Transporter (DAT) (AID 2283374);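 also: activity means loss of bound radioligand signal relative to DMSO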
- Experimental: NVS_TR_hDAT is a biochemical, single-readout assay that uses extracted gene-proteins in a cell-free assay. Measurements were taken 1 hour after chemical dosing in a 96-well plate.NVS_TR_hDAT is one of one assay component(s) measured or calculated from the NVS_TR_hDAT assay. […] This assay endpoint, NVS_TR_hDAT, was analyzed in the positive analysis fitting direction relative to DMSO as the negative control and baseline of activity. […]
Records with an inconclusive call do not appear. Activity calls are given as the source filed them. How the source made its calls: active means hit-call score of the fitted dose curve at least 0.9, where 1 is the maximum; inconclusive means response in the unintended direction; inactive means score below 0.9.
quantity_measured: AC50

CCCCCCC(C)OC(=O)COc1nc(F)c(Cl)c(N)c1Cl (stereo not given)	inactive
CC(C)CCCCCCc1ccc(O)cc1	8.36 µM (active)
CC(C)(c1ccc(O)cc1)c1ccc(O)cc1	8.34 µM (active) [middle of 4 runs]
CCOC(=O)NCCOc1ccc(Oc2ccccc2)cc1	3.08 µM (active)
CC(C)(C)[C@@H](O)[C@@H](Cc1ccc(Cl)cc1)n1cncn1	2.39 µM (active)
CCOC(=O)C(C)Oc1ccc(Oc2cnc3cc(Cl)ccc3n2)cc1 (stereo not given)	inactive

Enquiry: Param item = `Oc1ccc(C(c2ccc(O)cc2)C(Cl)(Cl)Cl)cc1` ; retrieve measured AC50.
Return: 0.446 µM (active)

Enquiry: Find the recorded AC50 belonging to `C#CCOC(=O)[C@@H](C)Oc1ccc(Oc2ncc(Cl)cc2F)cc1` and report it.
Return: 7.24 µM (active)

Enquiry: Tell me the measured AC50 of `CCCCOCCOCCOCc1cc2c(cc1CCC)OCO2` , please.
Return: 35.7 µM (active)

Enquiry: I am curious: what AC50 value has been reported for `CCN(Cc1c(F)cccc1Cl)c1c([N+](=O)[O-])cc(C(F)(F)F)cc1[N+](=O)[O-]` ?
Return: inactive

###

- method: CCTE_Shafer_MEA_acute_spike_number: CCTE's Neural Acute Assay for Total Number of Spikes, Shafer Lab (AID 2284008);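 as to AC50: curve fitted for decrease in spike count so AC50 reflects inhibitors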
The source made the active and inactive calls. The calls were made as follows: active = hit-call score of the fitted dose curve at least 0.9, where 1 is the maximum; inactive = score below 0.9.
quantity_measured: AC50

Example cases with answers are listed next.
CC(C)(C)[C@@H](O)[C@@H](Cc1ccc(Cl)cc1)n1cncn1	inactive
OB(O)O	inactive
Oc1ccc(C(c2ccc(O)cc2)C(Cl)(Cl)Cl)cc1	4.04 µM (active)
N#CSCSc1nc2ccccc2s1	inactive

Enquiry: Reported AC50 for `CCCN(CCC)c1c([N+](=O)[O-])cc(C(F)(F)F)c(N)c1[N+](=O)[O-]` : what is it?
Return: inactive

Enquiry: For `CC(C)(c1ccc(O)cc1)c1ccc(O)cc1` , what is its reported AC50?
Return: 5.7 µM (active)

Enquiry: Would you mind telling me what AC50 value was observed for `O=C(O)c1ccccc1` ?
Return: inactive

###

- Read-out: Thrombomodulin, THBD (gene 7056)
- method: BSK_3C_Thrombomodulin: BioMAP Diversity Plus: 3C Assay for Thrombomodulin Biomarker Activity (AID 2283029)
- assay_setup: primary human endothelial cells (HUVEC); actives raise or lower the signal
Active and inactive are the calls of the source. Rule for the calls: active = hit-call score of the fitted dose curve at least 0.9, where 1 is the maximum; inactive = score below 0.9.
quantity_measured: AC50

The cases that follow already have their AC50 on record.
c1ccc(Nc2ccccc2)cc1	inactive
COC(=O)CSc1cc(N=c2sc(=O)n3n2CCCC3)c(F)cc1Cl	1.21 µM (active)
CCOC(=O)C(C)Oc1ccc(Oc2cnc3cc(Cl)ccc3n2)cc1 (stereo not drawn)	inactive
CCCOC(=O)NCCCN(C)C	inactive
CCC(O)=C1C(=O)CC(C(=O)O)CC1=O (stereo not drawn)	inactive
COC(=O)c1ccc(CNS(C)(=O)=O)cc1S(=O)(=O)NC(=O)Nc1nc(OC)cc(OC)n1	inactive
CC(C)CCCCCCc1ccc(O)cc1	20 µM (active)

Query compound follows.
Enquiry: Param item = `CCSC(=O)N(CC(C)C)CC(C)C` ; retrieve measured AC50.
Return: inactive

###

- method: ATG_XTT_Cytotoxicity: Cytotoxicity Assessment in the Attagene TRANS-FACTORIAL HepG2 Assay (AID 2283584)
Records with an inconclusive call do not appear. Calls of active or inactive are those of the source. The calls were made as follows: active = hit-call score of the fitted dose curve at least 0.9, where 1 is the maximum; inconclusive = response in the unintended direction; inactive = score below 0.9.
Choose one outcome from this list and give only that: 1.0 = active, 0.0 = inactive

CCN(Cc1c(F)cccc1Cl)c1c([N+](=O)[O-])cc(C(F)(F)F)cc1[N+](=O)[O-]	0.0
CCCCC(CC)CN1C(=O)C2C3C=CC(C3)C2C1=O (centres undefined)	0.0
CSC(=O)c1cccc2nnsc12	0.0
Oc1ccc(C(c2ccc(O)cc2)C(Cl)(Cl)Cl)cc1	0.0
CC(C)CCCCCCc1ccc(O)cc1	1.0

In the following, a different compound is considered.
Enquiry: Per the records of this test, what outcome belongs to `S=C(S)NCCNC(=S)S.[Mn+2].[S-]C([S-])=NCCN=C([S-])[S-].[Zn+2]` ?
Return: 0.0

###

- method: CEETOX_H295R_TESTO: CeeTox H295R High-throughput Steroidogenesis Assay for Testosterone (TESTO) (AID 2283457)
- assay_setup: actives raise or lower the signal
Activity calls are given as the source filed them. The calls were made as follows: active = hit-call score of the fitted dose curve at least 0.9, where 1 is the maximum; inactive = score below 0.9.
In this exercise, the only acceptable responses are 1 = active, 0 = inactive

Enquiry: Returns: the outcome recorded for `c1ccc2[nH]c(-c3cscn3)nc2c1` in this assay.
Return: 0

Enquiry: Write down the call the test reported for this molecule. Item: `CCCCOCCOCCOCc1cc2c(cc1CCC)OCO2`
Return: 0

Enquiry: Test call, this molecule: `CC(=O)S[C@@H]1CC2=CC(=O)CC[C@]2(C)[C@H]2CC[C@@]3(C)[C@@H](CC[C@@]34CCC(=O)O4)[C@H]12`
Return: 1

Enquiry: Please state the recorded outcome for this molecule: `CCCN(CCC)C(=O)SCC`
Return: 0

Enquiry: What call does the record list for `CSC(=O)c1cccc2nnsc12` ?
Return: 0

###

- Tested on: zebrafish Peroxisome Proliferator-activated Receptor gamma (PPARg), gene 557037
- method: ATG_zfPPARg_XSP1: Attagene TRANS-FACTORIAL Multi-Species (XSP1) HepG2 Assay for zebrafish Peroxisome Proliferator-activated Receptor gamma (PPARg) (AID 2283801)
Records with an inconclusive call do not appear. The source made the active and inactive calls. How the source made its calls: active means hit-call score of the fitted dose curve at least 0.9, where 1 is the maximum; inconclusive means response in the unintended direction; inactive means score below 0.9.
quantity_measured: outcome

CC(=O)S[C@@H]1CC2=CC(=O)CC[C@]2(C)[C@H]2CC[C@@]3(C)[C@@H](CC[C@@]34CCC(=O)O4)[C@H]12	inactive
CC1(C)C(C=C(Cl)Cl)C1C(=O)OCc1cccc(Oc2ccccc2)c1 (centres undefined)	inactive
C=CCOC(Cn1ccnc1)c1ccc(Cl)cc1Cl (centres undefined)	inactive
CCCCC(CC)CN1C(=O)C2C3C=CC(C3)C2C1=O (centres undefined)	inactive

###

- method: ATG_AP_2_CIS: Attagene CIS-FACTORIAL HepG2 Assay for human Activator Protein 2 (AP-2) (AID 2282932)
- assay_setup: HepG2 AP-2 cis-reporter, Attagene transcription factor profiling; actives raise or lower the signal
Activity calls are given as the source filed them. The calls were made as follows: active = hit-call score of the fitted dose curve at least 0.9, where 1 is the maximum; inactive = score below 0.9.
quantity_measured: outcome

Please review the following examples before continuing.
CCN(CC)C(=O)c1cccc(C)c1	inactive
C[C@]12CC[C@@H]3c4ccc(O)cc4C[C@@H](CCCCCCCCCS(=O)CCCC(F)(F)C(F)(F)F)[C@H]3[C@@H]1CC[C@@H]2O (stereo partly drawn)	inactive
CC(=O)[C@H]1CC[C@H]2[C@@H]3CCC4=CC(=O)CC[C@]4(C)[C@H]3CC[C@]12C	inactive
COC(=O)c1cccc(C)c1S(=O)(=O)NC(=O)Nc1nc(OCC(F)(F)F)nc(N(C)C)n1	inactive

Could you now consider this next compound?
Enquiry: Data request, read-out outcome, for `CCCN(CCC)C(=O)SCC`
Return: inactive

###

- method: ATG_EGR_CIS: Attagene CIS-FACTORIAL HepG2 Assay for human Early Growth Response 1 (EGR1) (AID 2282938)
- assay_setup: HepG2 Attagene CIS-FACTORIAL EGR reporter mRNA; actives raise or lower the signal
Activity calls are given as the source filed them. How the source made its calls: active means hit-call score of the fitted dose curve at least 0.9, where 1 is the maximum; inactive means score below 0.9.
quantity_measured: outcome

CCCCC(CC)CN1C(=O)C2C3C=CC(C3)C2C1=O (stereo not drawn)	inactive
O=C(O)C1(C(=O)Nc2ccc(Cl)cc2Cl)CC1	inactive
COC(=O)c1ccc(CNS(C)(=O)=O)cc1S(=O)(=O)NC(=O)Nc1nc(OC)cc(OC)n1	inactive
